Reported protein stability index values for a set of variants
B1: TPRG1 (parent)
chain: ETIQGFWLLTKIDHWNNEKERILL

- Variants of: B1
- assay_summary: protein stability index of a GFP-peptide fusion (GPS, HEK-293T) (PSI 1-6); higher = more stable;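 further: lentivirally expressed fusions sorted by FACS into six bins by GFP to DsRed ratio, PSI derived from sequencing read proportions per bin multiplied by bin number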
- particulars: c terminus: a fixed tail appended
Answer using only a numeral; do not append any unit.

Input: Item under review: EDIQGFWLLTKIDHWNNEKERILL [T2D] . Reported protein stability index?
Output: 1.91

Input: Try this variant next: ETIQGFWLLTKIDWWNNEKERILL [H14W]
Output: 2.98

Input: How about this variant: ETIQGFWLLTKIDEWNNEKERILL [H14E]
Output: 2.51

Input: Next variant: ETIQGFWLLTKNDHWNNEKERILL [I12N]
Output: 2.83

Input: Also ETIQGFWLLTKIDHWNNEKERIRL [L23R] , if possible.
Output: 1.77

Input: Same question for ETIQGFWLLTKIDHWGNEKERILL [N16G] please.
Output: 1.75

Input: Same read-out for ETIQGFWLLYKIDHWNNEKERILL [T10Y] ?
Output: 2.44

Input: Follow-up item: ETIQGFWLLTKIDHWNNEKELILL [R21L]
Output: 2.75

Input: Similarly, ETIQGWWLLTKIDHWNNEKERILL [F6W] ?
Output: 1.12

Input: Further, for ETIQGFWELTKIDHWNNEKERILL [L8E] ?
Output: 2.42

Input: Would you kindly repeat that for ETIQPFWLLTKIDHWNNEKERILL [G5P] ?
Output: 2.33

Input: // repeat for NTIQGFWLLTKIDHWNNEKERILL [E1N] and report
Output: 2.13

Input: Lookup ETIQGFVLLTKIDHWNNEKERILL [W7V]
Output: 3.28
